Ref: ChEMBL document CHEMBL5260843

- Assayed Target: DCN1-like protein 1/NEDD8-conjugating enzyme Ubc12 (Homo sapiens, UniProt Q96GG9)
- Sequence (Q96GG9 whole entry, the tested form may be a part): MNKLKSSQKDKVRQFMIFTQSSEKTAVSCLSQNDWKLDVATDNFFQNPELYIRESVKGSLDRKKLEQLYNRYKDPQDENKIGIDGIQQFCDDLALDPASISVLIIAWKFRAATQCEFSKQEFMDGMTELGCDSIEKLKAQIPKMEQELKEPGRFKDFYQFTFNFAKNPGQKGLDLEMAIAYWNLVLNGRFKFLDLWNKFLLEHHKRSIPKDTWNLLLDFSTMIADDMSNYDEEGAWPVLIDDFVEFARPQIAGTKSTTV
- Sequence (P61081 whole entry, further chain, the tested form may be a part): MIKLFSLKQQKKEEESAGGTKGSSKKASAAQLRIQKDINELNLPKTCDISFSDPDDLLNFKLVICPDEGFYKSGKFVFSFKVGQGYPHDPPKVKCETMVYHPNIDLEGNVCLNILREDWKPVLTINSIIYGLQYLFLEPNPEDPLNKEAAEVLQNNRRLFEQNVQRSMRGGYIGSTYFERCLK
- Assay Protocol: Inhibition of GST-tagged DCN1 PONY domain (unknown origin)/human N-terminal acetylated UBC12 (1 to 12 residues) protein-protein interaction incubated for 1 hr by HTRF analysis
- Assay type: protein assay
Measurement Kind: IC50

Compound Structure String | Result
Cc1cc(Sc2nnnn2CCN(C)C)n2nc(SCc3ccc(F)cc3)nc2n1 | 16 nM
CN(C)CCn1nnnc1Sc1c2c(nc3ncnn13)CCC2 | 61 nM
Cc1cc(Sc2nnnn2CCN(C)C)n2nc(SCc3ccc(C(F)(F)F)cc3)nc2n1 | 186 nM
Cc1cc(Sc2nnnn2CCN(C)C)n2nc(SCc3ccc(Br)cc3)nc2n1 | 15 nM
Cc1cc(Sc2nnnn2CCN(C)C)n2nc(SCc3ccc(Cl)cc3)nc2n1.Cl | 11 nM
Cc1cc(Sc2nnnn2CCN(C)C)n2nc(SC(C)C)nc2n1 | 268 nM
CN(C)CCn1nnnc1Sc1cc(C2CC2)nc2ncnn12 | 127 nM
Cc1cc(Sc2nnnn2CCN(C)C)n2nc(SCc3ccc(Cl)c(F)c3)nc2n1 | 17 nM
CN(C)CCn1nnnc1Sc1cc(-c2ccccc2)nc2ncnn12 | 130 nM
Cc1cc(Sc2nnnn2CCN(C)C)n2nc(SCc3cccc(Br)c3)nc2n1 | 195 nM
Cc1cc(Sc2nnnn2CCN(C)C)n2nc(SCc3ccccc3)nc2n1 | 22 nM
C=CCSc1nc2nc(C)cc(Sc3nnnn3CCN(C)C)n2n1 | 137 nM
Cc1cc(Sc2nnnn2CCN(C)C)n2nc(SCc3ccccc3[N+](=O)[O-])nc2n1 | 24 nM
Cc1cc(Sc2nnnn2CCN(C)C)n2nc(SCc3ccc(F)c(Cl)c3)nc2n1 | 22 nM
Cn1nnnc1Sc1cc(-c2ccccc2)nc2ncnn12 | 5820 nM
COc1ccc(CSc2nc3nc(C)cc(Sc4nnnn4CCN(C)C)n3n2)cc1 | 28 nM
Cc1cc(Sc2nnnn2CCN(C)C)n2nc(SCc3ccccc3C(F)(F)F)nc2n1 | 654 nM
Oc1ccc(-n2nnnc2Sc2cc(-c3ccccc3)nc3ncnn23)cc1 | 3880 nM
Cc1nc2nc(SCc3ccc(Cl)cc3)nn2c(Sc2nnnn2CCN(C)C)c1C | 3360 nM
Cc1cc(Sc2nnnn2CCN(C)C)n2nccc2n1 | 4210 nM
Cc1cc(Sc2nnnn2CCN(C)C)n2nc(SCc3csc4ccc(Cl)cc34)nc2n1 | 4890 nM
C#CCSc1nc2nc(C)cc(Sc3nnnn3CCN(C)C)n2n1 | 67 nM

====

Reported pIC50 values for the following compounds.
- Assayed Target: DCN1-like protein 1/NEDD8-conjugating enzyme Ubc12 (Homo sapiens)
- Assay Protocol: Inhibition of GST-tagged DCN1 PONY domain (unknown origin)/human N-terminal acetylated UBC12 (1 to 12 residues) protein-protein interaction incubated for 1 hr by HTRF analysis
- Assay type: protein assay
pIC50: −log10 of the molar value.
Measurement Kind: pIC50

Compound Structure String | Assayed Target | Measurement Kind | Relational Operator | Quantitative Result
Cc1cc(Sc2nnnn2CCN(C)C)n2nc(SCc3cc(=O)oc4c3ccc3ccccc34)nc2n1 | DCN1-like protein 1/NEDD8-conjugating enzyme Ubc12 (Homo sapiens) | pIC50 | = | 6.51
c1ccc(-c2cc(Sc3nnnn3-c3ccccc3)n3ncnc3n2)cc1 | DCN1-like protein 1/NEDD8-conjugating enzyme Ubc12 (Homo sapiens) | pIC50 | = | 4.80
Cc1cc(Sc2nnnn2CCN(C)C)n2nc(SCC3CC3)nc2n1 | DCN1-like protein 1/NEDD8-conjugating enzyme Ubc12 (Homo sapiens) | pIC50 | = | 7.23
Cc1cc(Sc2nnnn2CCN(C)C)n2ncnc2n1 | DCN1-like protein 1/NEDD8-conjugating enzyme Ubc12 (Homo sapiens) | pIC50 | = | 7.29
CCCSc1nc2nc(C)cc(Sc3nnnn3CCN(C)C)n2n1 | DCN1-like protein 1/NEDD8-conjugating enzyme Ubc12 (Homo sapiens) | pIC50 | = | 6.67
Cc1ccc(CSc2nc3nc(C)cc(Sc4nnnn4CCN(C)C)n3n2)cc1 | DCN1-like protein 1/NEDD8-conjugating enzyme Ubc12 (Homo sapiens) | pIC50 | = | 7.11
CN(C)CCn1nnnc1Sc1cc(-c2ccccc2)nc2nc(SCc3ccccc3)nn12 | DCN1-like protein 1/NEDD8-conjugating enzyme Ubc12 (Homo sapiens) | pIC50 | = | 6.54
Cc1cc(Sc2nnnn2CCN(C)C)n2nc(SCc3cccc(C(F)(F)F)c3)nc2n1 | DCN1-like protein 1/NEDD8-conjugating enzyme Ubc12 (Homo sapiens) | pIC50 | = | 5.97
CN(C)CCn1nnnc1Sc1ncnc2ccsc12 | DCN1-like protein 1/NEDD8-conjugating enzyme Ubc12 (Homo sapiens) | pIC50 | < | 4.30
C#CCSc1nc2nc(-c3ccccc3)cc(Sc3nnnn3CCN(C)C)n2n1 | DCN1-like protein 1/NEDD8-conjugating enzyme Ubc12 (Homo sapiens) | pIC50 | = | 7.10
Cc1cc(Sc2nnnn2CCN(C)C)n2nc(SCc3cccc4ccccc34)nc2n1 | DCN1-like protein 1/NEDD8-conjugating enzyme Ubc12 (Homo sapiens) | pIC50 | = | 6.68
